target: h-cGAS (Homo sapiens); assay: Cell-free human cGAS enzyme inhibition assay (ATP depletion, Kinase-Glo Max); type: biochemical; conditions: 3 h; read-out: h-cGAS, conc. 10 μM
Sequence (Q8N884 whole entry): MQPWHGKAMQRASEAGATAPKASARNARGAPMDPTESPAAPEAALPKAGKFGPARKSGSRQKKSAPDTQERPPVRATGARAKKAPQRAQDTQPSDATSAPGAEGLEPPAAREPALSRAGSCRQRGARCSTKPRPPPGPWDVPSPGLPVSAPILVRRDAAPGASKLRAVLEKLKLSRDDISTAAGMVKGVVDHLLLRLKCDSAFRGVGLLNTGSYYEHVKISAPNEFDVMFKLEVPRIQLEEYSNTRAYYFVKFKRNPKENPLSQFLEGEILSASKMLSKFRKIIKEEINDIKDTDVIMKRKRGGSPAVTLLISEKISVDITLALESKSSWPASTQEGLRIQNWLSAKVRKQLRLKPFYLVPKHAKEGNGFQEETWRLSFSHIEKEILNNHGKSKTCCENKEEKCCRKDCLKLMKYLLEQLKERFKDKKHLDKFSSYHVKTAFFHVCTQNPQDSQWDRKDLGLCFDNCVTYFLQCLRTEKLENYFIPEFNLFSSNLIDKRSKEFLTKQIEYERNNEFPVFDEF
endpoint: inhibition at 10 µM

NCC(=O)N1CCc2c(sc3c(Cl)c(Cl)cc(-c4cccnc4)c23)C1 [Compound 78]: 50 to 74%
CC(C)(N)C(=O)N1CCc2oc3c(Cl)c(Cl)cc(-c4cc[nH]n4)c3c2C1 [Compound 34]: 50 to 74%
Cn1ncc(-c2cc(Cl)c(Cl)c3sc4c(c23)CCN(C(=O)CN)C4)n1 [Compound 92]: 50 to 74%
O=C(CO)N1CCc2oc3c(Cl)c(Cl)cc(-c4cc[nH]n4)c3c2C1 [Compound 28]: 50 to 74%
NCC(=O)N1CCc2c(sc3c(Cl)c(Cl)cc(-n4cccn4)c23)C1 [Compound 94]: 50 to 74%
Cn1ccc(-c2cc(Cl)c(Cl)c3sc4c(c23)CCN(C(=O)CO)C4)n1 [Compound 60]: 25 to 49%
Cn1c2c(c3c(-c4ccn[nH]4)cc(Cl)c(Cl)c31)CN(C(=O)C1CCCN1C(=O)OC(C)(C)C)CC2 (centres unmarked) [Compound 15]: 0 to 24%
NCC(=O)N1CCc2c(sc3c(Cl)c(Cl)cc(-c4cnccn4)c23)C1 [Compound 90]: 50 to 74%

Please give inhibition at 10 µM for each item listed below.
1. CC(C)(C)OC(=O)N1CCCC1C(=O)N1CCc2[nH]c3c(Cl)c(Cl)cc(-c4ccc(N)nc4)c3c2C1 (centres unmarked) [Compound 13]
2. Cn1cc(-c2cc(Cl)c(Cl)c3c2c2c(n3C)CCN(C(=O)CN)C2)cn1 [Compound 11]
3. Cn1ccc(-c2cc(Cl)c(Cl)c3oc4c(c23)CN(C(=O)CO)CC4)n1 [Compound 24]
4. Cn1ccc(-c2cc(Cl)c(Cl)c3oc4c(c23)CCN(C(=O)CN)C4)n1 [Compound 41]
5. CNc1ccc(-c2cc(Cl)c(Cl)c3sc4c(c23)CCN(C(=O)CN)C4)cn1 [Compound 76]

["0 to 24%", "75 to 100%", "75 to 100%", "75 to 100%", "50 to 74%"]

* * *

Please go through the items and note down their Remaining (NCF = 60 min).
assay: Metabolic stability in human liver microsomes; settings: human liver microsomes; 60 min, no co-factor (no NADPH)
Give bare numbers, in %.

Solved entries:
Cn1cc(-c2cc(Cl)c(Cl)c3sc4c(c23)CN(C(=O)CN)CC4)cn1: 129.8
Cn1cc(-c2cc(Cl)c(Cl)c3c2c2c(n3C)CCN(C(=O)CN)C2)cn1: 116.1

Kindly consider the entry below.
Recorded Remaining (NCF = 60 min) for Cn1cc(-c2cc(Cl)c(Cl)c3sc4c(c23)CCN(C(=O)CN)C4)cn1 , please? 89.2

* * *

experiment: Pharmacokinetic study, plasma and brain PK parameters after I.P. dosing; format: in vivo, mouse; conditions: mouse, ip; brain; 25 mg/Kg I.P.; read-out: AUCInf (Brain)
Please go through the items and note down their AUC(0-inf).
Answer as a quantity: numeral, then unit.

Cn1cc(-c2cc(Cl)c(Cl)c3sc4c(c23)CN(C(=O)CO)CC4)cn1: 128000 ng·h/mL

Recorded AUC(0-inf) for O=C(CO)N1CCc2c(sc3c(Cl)c(Cl)cc(-c4cn[nH]c4)c23)C1 , please? 34400 ng·h/mL

Origin of measurements: patent US20250163052A1
